Entries and their pIC50 values follow.
biological target: K103NNY181C mutant reverse transcriptase (Human immunodeficiency virus type 1 group M subtype B, UniProt P04585, K690N/Y768C); construct: mutations that occur in the reverse transcriptase segment of the pol gene; experiment: Reverse transcriptase enzymatic assay (PicoGreen), K103N/Y181C mutant RT; assay type: biochemical, HIV-1; conditions: IC50 mut, mutant reverse transcriptase, enzymatic assay of Example 24
pIC50: −log10 of the molar value.
observed property: pIC50

>>> value_measured("CC(C)(C#Cc1ccc(NC(=O)CSc2nnc(C(F)(F)F)n2-c2ccc(C3CC3)cc2Cl)c(Cl)c1)C(=O)O")
7.14
>>> value_measured("CC(C)(C)c1ccc(-n2nnnc2SCC(=O)Nc2ccc(OCC(=O)NCCc3ccncc3)cc2Cl)c(Cl)c1")
7.18
>>> value_measured("CC(C)(C)c1ccc(-n2nnnc2SCC(=O)Nc2ccc(S(=O)(=O)NCCO)cc2Cl)c(Cl)c1")
7.09
